- tested-target: Recombinant human LSD1 (172–852 aa) (Homo sapiens, UniProt O60341)
- assay-name: biochemical
Mark Criterion met for IC50 under 30 nM, Criterion not met if at or over.

compound | category
COc1ccc(F)cc1CN[C@@H]1CC12CCc1cc(-c3ccccc3)ccc12 (stereo in doubt) [Compound 30a] | Criterion not met
Fc1cccnc1CN[C@@H]1CC12CCc1ccccc12 (stereo in doubt) [Compound 24a] | Criterion not met
COc1ncccc1CN[C@H]1CC12CCc1ccccc12 (stereo in doubt) [Compound 22b] | Criterion met

*Q* Determine if COc1ccc(F)cc1CN[C@@H]1CC12CCc1cc(-c3ccc(F)cc3)ccc12 (stereo in doubt) [Compound 32a] shows IC50 strictly lower than 30 nM.
*A* Criterion not met

*Q* Given the entry COc1ccc(F)cc1CN[C@H]1CC12CCc1ccccc12 (stereo in doubt) [Compound 17b] , would its reported IC50 be below 30 nM?
*A* Criterion met

###

For each record, write down the corresponding IC50.
- tested-target: Recombinant human LSD1 (172–852 aa) (Homo sapiens, UniProt O60341)
- assay-name: biochemical

compound | IC50
COc1cc(F)ccc1CN[C@H]1CC12CCc1ccccc12 (stereo in doubt) [Compound 18b] | 0.015 µM

State recorded IC50 for all listed compounds.
1. COc1cc(F)ccc1CN[C@@H]1CC12CCc1ccccc12 (stereo in doubt) [Compound 18a]
2. Fc1cccnc1CN[C@H]1CC12CCc1ccccc12 (stereo in doubt) [Compound 24b]

*A*
0.0071 µM
0.47 µM

# map each compound to its IC50
1. Fc1ncccc1CN[C@H]1CC12CCc1ccccc12 (stereo in doubt) [Compound 23b]
2. c1cncc(CN[C@@H]2CC23CCc2ccccc23)c1 (mixture of isomers) [Compound 21a]
3. O=C(CN[C@H]1CC12CCc1ccccc12)N1CCOCC1 (stereo in doubt) [Compound 25b]
4. c1ccc(CN[C@H]2CC23CCc2ccccc23)cc1 (stereo in doubt) [Compound 13b]
5. COc1ccc(F)cc1CN[C@@H]1CC12CCc1ccccc12 (stereo in doubt) [Compound 17a]
6. Fc1ncccc1CN[C@@H]1CC12CCc1ccccc12 (mixture of isomers) [Compound 23a]

*A*
1: 0.07 µM; 2: 0.017 µM; 3: 22 µM; 4: 0.11 µM; 5: 0.0066 µM; 6: 0.064 µM

// each listed compound needs a value for IC50
1. c1ccc(CN[C@@H]2CC23CCc2ccccc23)cc1 (mixture of isomers) [Compound 13a]
2. O=C(CN[C@@H]1CC12CCc1ccccc12)N1CCOCC1 (stereo in doubt) [Compound 25a]
3. Cl.N[C@H]1CC12CCc1cc(-c3ccc(F)cc3)ccc12 (stereo in doubt) [Compound 29b]

*A*
1: 3.3 µM; 2: 1.4 µM; 3: 6 µM

Please state, for each entry, its recorded IC50.
1. COc1ccc(F)cc1CN[C@H]1CC12CCc1cc(-c3ccccc3)ccc12 (stereo in doubt) [Compound 30b]
2. COc1ccc(CN[C@@H]2CC23CCc2cc(-c4ccccc4)ccc23)c(Cl)c1OC (stereo in doubt) [Compound 31a]
3. c1cncc(CN[C@H]2CC23CCc2ccccc23)c1 (mixture of isomers) [Compound 21b]
4. N[C@@H]1CC12CCc1cc(-c3ccccc3)ccc12 (stereo in doubt) [Compound 28a]

*A*
["4.4 µM", "8.9 µM", "0.02 µM", "0.1 µM"]

###

- tested-target: MAO-B (Homo sapiens)
- Sequence (P27338 1-520): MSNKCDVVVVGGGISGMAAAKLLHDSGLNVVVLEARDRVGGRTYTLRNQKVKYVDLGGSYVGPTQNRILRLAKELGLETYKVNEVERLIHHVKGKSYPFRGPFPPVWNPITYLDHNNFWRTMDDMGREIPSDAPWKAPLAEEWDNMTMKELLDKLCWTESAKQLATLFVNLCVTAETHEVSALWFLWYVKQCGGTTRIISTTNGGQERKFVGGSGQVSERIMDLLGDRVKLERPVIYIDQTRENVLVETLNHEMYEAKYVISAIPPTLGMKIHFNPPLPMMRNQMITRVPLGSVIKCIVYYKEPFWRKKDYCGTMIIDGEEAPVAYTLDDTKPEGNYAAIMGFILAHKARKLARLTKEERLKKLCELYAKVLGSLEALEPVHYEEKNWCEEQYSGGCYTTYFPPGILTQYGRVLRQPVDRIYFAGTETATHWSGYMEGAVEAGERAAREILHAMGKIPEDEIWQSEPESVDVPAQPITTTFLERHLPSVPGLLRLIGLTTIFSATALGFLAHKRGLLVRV
- assay-name: biochemical
- stated-conditions: MAO-B IC50
result-type: IC50 (nM)
One number for each entry, in nM.

Documented IC50 of N[C@@H]1CC12CCc1cc(-c3ccccc3)ccc12 (stereo in doubt) [Compound 28a] : 170

###

- tested-target: MAO-B (Homo sapiens)
- assay-name: biochemical
- stated-conditions: MAO-B, IC50, Table 1; mean ± SEM, eight-point experiments, three independent experiments
Exercise: for every item that follows, state its recorded IC50.
Numbers only, in µM.

compound | tested-target | IC50 (µM)
COc1cc(F)ccc1CN[C@H]1CC12CCc1ccccc12 (stereo in doubt) [Compound 18b] | MAO-B (Homo sapiens) | 31

Record IC50 for all entries; do not skip any.
1. COc1ccc(CNC2CC23CCc2ccccc23)cc1OC (centres unmarked) [Compound 19a]
2. c1cncc(CN[C@H]2CC23CCc2ccccc23)c1 (mixture of isomers) [Compound 21b]

*A*
1: 15; 2: 28

###

Assign IC50 to each entry below.
- tested-target: full-length LSD2 (Homo sapiens)
- Sequence (Q8NB78 1-822): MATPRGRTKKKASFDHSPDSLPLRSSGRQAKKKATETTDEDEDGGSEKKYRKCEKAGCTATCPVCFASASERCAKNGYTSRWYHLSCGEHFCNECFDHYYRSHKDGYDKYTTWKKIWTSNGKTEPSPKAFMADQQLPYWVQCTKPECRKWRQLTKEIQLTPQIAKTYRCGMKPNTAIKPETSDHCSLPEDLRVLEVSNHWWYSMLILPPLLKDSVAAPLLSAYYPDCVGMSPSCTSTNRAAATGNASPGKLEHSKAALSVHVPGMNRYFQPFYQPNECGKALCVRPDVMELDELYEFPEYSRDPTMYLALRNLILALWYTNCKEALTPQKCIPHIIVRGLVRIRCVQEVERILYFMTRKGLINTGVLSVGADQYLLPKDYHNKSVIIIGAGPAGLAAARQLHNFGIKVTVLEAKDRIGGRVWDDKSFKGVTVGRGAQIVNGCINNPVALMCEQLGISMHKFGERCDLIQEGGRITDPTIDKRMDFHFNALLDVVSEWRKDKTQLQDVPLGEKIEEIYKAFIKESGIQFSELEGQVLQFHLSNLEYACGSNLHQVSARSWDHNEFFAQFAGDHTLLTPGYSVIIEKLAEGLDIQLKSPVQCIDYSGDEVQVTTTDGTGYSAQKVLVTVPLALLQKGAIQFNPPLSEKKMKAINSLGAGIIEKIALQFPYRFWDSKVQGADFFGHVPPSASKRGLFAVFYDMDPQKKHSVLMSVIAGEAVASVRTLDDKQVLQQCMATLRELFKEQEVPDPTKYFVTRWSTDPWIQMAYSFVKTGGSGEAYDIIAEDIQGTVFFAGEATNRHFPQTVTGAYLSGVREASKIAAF
Numbers only, in nM.

Illustrative cases are given below, each with its answer.
compound | IC50 / nM
Fc1ncccc1CN[C@@H]1CC12CCc1ccccc12 (mixture of isomers) [Compound 23a] | 13000
c1ccc(CN[C@H]2CC23CCc2ccccc23)cc1 (stereo in doubt) [Compound 13b] | 2000
COc1ccc(F)cc1CN[C@H]1CC12CCc1ccccc12 (stereo in doubt) [Compound 17b] | 1700

Query COc1cc(F)ccc1CN[C@H]1CC12CCc1ccccc12 (stereo in doubt) [Compound 18b] on full-length LSD2 (Homo sapiens); IC50 returned: 490

###

What pIC50 was measured for each of the following?
- tested-target: UniProt P21397
- Sequence (P21397 whole entry, species assumed): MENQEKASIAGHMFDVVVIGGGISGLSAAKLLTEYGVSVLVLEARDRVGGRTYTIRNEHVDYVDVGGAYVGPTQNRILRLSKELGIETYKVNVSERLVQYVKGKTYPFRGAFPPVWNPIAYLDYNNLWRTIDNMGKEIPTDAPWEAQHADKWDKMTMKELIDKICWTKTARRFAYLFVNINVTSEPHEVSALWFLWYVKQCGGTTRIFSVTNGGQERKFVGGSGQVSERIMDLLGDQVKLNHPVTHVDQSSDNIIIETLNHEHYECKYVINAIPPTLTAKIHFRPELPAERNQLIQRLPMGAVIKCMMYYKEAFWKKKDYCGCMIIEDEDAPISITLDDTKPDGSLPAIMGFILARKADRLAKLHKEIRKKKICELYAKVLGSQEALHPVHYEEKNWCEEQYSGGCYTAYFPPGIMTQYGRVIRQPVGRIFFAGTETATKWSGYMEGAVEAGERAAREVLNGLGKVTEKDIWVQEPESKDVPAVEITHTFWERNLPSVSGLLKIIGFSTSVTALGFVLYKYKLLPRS
- assay-name: biochemical
- stated-conditions: MAO-A, IC50, Table 1; mean ± SEM, eight-point experiments, three independent experiments
One number for each entry, as −log10 of the molar value.

Previously resolved entries follow.
compound | pIC50
Fc1ccccc1CN[C@@H]1CC12CCc1ccccc12 (mixture of isomers) [Compound 15a] | 5.32
COc1ccc(F)cc1CN[C@H]1CC12CCc1ccccc12 (stereo in doubt) [Compound 17b] | 6.92
COc1ccccc1CN[C@H]1CC12CCc1ccccc12 (stereo in doubt) [Compound 14b] | 5.77
COc1ccc(CN[C@H]2CC23CCc2ccccc23)c(Cl)c1OC (stereo in doubt) [Compound 20b] | 5.30

Let us examine a further case.
Quick note, pIC50 for COc1ccc(CNC2CC23CCc2ccccc23)cc1OC (centres unmarked) [Compound 19a] landed at 4.93

###

- tested-target: UniProt P21397
- assay-name: biochemical
- stated-conditions: MAO-A, IC50, Table 1; mean ± SEM, eight-point experiments, three independent experiments
result-type: pIC50
One number for each entry, as −log10 of the molar value.

// worked examples, pIC50 included
compound | pIC50
COc1ccccc1CN[C@@H]1CC12CCc1ccccc12 (stereo in doubt) [Compound 14a] | 5.23
Fc1ccccc1CN[C@H]1CC12CCc1ccccc12 (stereo in doubt) [Compound 15b] | 5.60
Fc1ncccc1CN[C@@H]1CC12CCc1ccccc12 (mixture of isomers) [Compound 23a] | 5.01
c1cncc(CN[C@@H]2CC23CCc2ccccc23)c1 (mixture of isomers) [Compound 21a] | 4.97
COc1ccc(F)cc1CN[C@@H]1CC12CCc1ccccc12 (stereo in doubt) [Compound 17a] | 6.04
COc1ccc(Br)cc1CN[C@H]1CC12CCc1ccccc12 (stereo in doubt) [Compound 16b] | 6.41

Please look at the items below and tell me pIC50 for each one, in order.
1. c1ccc(CN[C@H]2CC23CCc2ccccc23)cc1 (stereo in doubt) [Compound 13b]
2. COc1cc(F)ccc1CN[C@@H]1CC12CCc1ccccc12 (stereo in doubt) [Compound 18a]
3. c1cncc(CN[C@H]2CC23CCc2ccccc23)c1 (mixture of isomers) [Compound 21b]

*A*
1. 6.89
2. 5.66
3. 5.22
